FYI, the data here is from paper PMC10397247.

Biological target: T1, P2-AA-1HGe-M
T1 chain: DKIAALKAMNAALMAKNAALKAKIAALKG
Assay: two-hybrid library CCmax;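 also: natural log of median RNA to DNA barcode read ratio; higher means stronger binding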
Conditions: mean of both orientations
Each entry gets N if its interaction score stays under 2, and Y if its interaction score is 2 or above.

BINDER	CATEGORY
DEIAALEAWNAALWAENAALEAEIAALEG [P1-AA-1HGe-W]	Y
DEIAALEADNAALDAENAALEAEIAALEG [P1-AA-1HGe-D]	N
DEIAALEAYNAALYAENAALEAEIAALEG [P1-AA-1HGe-Y]	N
DEIAALEAKNAALKAENAALEAEIAALEG [4H465-AA]	N

Req: Is reported interaction score greater than or equal to 2 here: DEIAALEAANAALAAENAALEAEIAALEG [P1-AA-1HGe-A]
Resp: Y
